Sourced from paper PMC10058949

Assay: in vivo
Set-up: species or system mice
Settings: female, BALB/c nude, mouse, iv, 20 pmol, total radioactivity, uptake in femur
outcome.measure: tissue uptake at 72 h (%ID/g)
// note: answer is a bare numeric in %ID/g

Q) Fill blank: measured tissue uptake at 72 h of the compound CCCC[C@@H](C(=O)N[C@@H](CC(=O)O)C(=O)N[C@@H](Cc1cccc2ccccc12)C(N)=O)N(C)C(=O)[C@H](Cc1c[nH]c2ccccc12)NC(=O)CCNC(=O)CC(O)CNC(=O)CC(O)CNC(=O)CN1CCN(CC(=O)O)CCN(CC(=O)O)CCN(CC(=O)O)CC1 (stereo partly shown) [[^177Lu]Lu-2, metal not drawn] is ____.
A) 0.03

----------
Test: in vivo
Design: species or system mice
Conditions: female, BALB/c nude, mouse, iv, 20 pmol, total radioactivity, uptake in spleen
outcome.measure: tissue uptake at 1 h (%ID/g)
Express it in %ID/g; write the number only.

Q) // lookup tissue uptake at 1 h for CCCC[C@@H](C(=O)N[C@@H](CC(=O)O)C(=O)N[C@@H](Cc1cccc2ccccc12)C(N)=O)N(C)C(=O)[C@H](Cc1c[nH]c2ccccc12)NC(=O)CCNC(=O)CC(O)CNC(=O)CC(O)CNC(=O)CN1CCN(CC(=O)O)CCN(CC(=O)O)CCN(CC(=O)O)CC1 (stereo partly shown) [[^177Lu]Lu-2, metal not drawn]
A) 0.54

----------
Assay: Biodistribution 4 h p.i. in A431-CCK2R/A431-mock xenografted BALB/c nude mice
Assay type: in vivo
Conditions: female, BALB/c nude, mouse, femur, iv, 20 pmol, total radioactivity, 4 h p.i., ~0.5 MBq, 20 pmol, n=5; read-out: uptake in femur
outcome.measure: tissue uptake at 4 h (%ID/g)
Please respond with the number in %ID/g and leave the unit unwritten.

Q) Given the compound CCCC[C@@H](C(=O)N[C@@H](CC(=O)O)C(=O)N[C@@H](Cc1cccc2ccccc12)C(N)=O)N(C)C(=O)[C@H](Cc1c[nH]c2ccccc12)NC(=O)CNC(=O)[C@H](Cc1ccc(O)cc1)NC(=O)[C@H](C)NC(=O)[C@@H](CCC(=O)O)NC(=O)CN1CCN(CC(=O)O)CCN(CC(=O)O)CCN(CC(=O)O)CC1 [[^177Lu]Lu-DOTA-MGS5, metal not drawn, reference compound] , what is its reported tissue uptake at 4 h?
A) 0.36

----------
Experiment: in vivo
Parameters: species or system mice
Settings: female, BALB/c nude, mouse, iv, 20 pmol, total radioactivity, Tumor-to-stomach ratio
outcome.measure: tissue to tissue ratio at 24 h
Lab note: record just the number, no unit beside it.

Q) I'd like to know its tissue to tissue ratio at 24 h. The compound in question is CCCC[C@@H](C(=O)N[C@@H](CC(=O)O)C(=O)N[C@@H](Cc1cccc2ccccc12)C(N)=O)N(C)C(=O)[C@H](Cc1c[nH]c2ccccc12)NC(=O)CCNC(=O)CC(O)CNC(=O)CC(O)CNC(=O)CN1CCN(CC(=O)O)CCN(CC(=O)O)CCN(CC(=O)O)CC1 (stereo partly shown) [[^177Lu]Lu-2, metal not drawn]
A) 9.2

----------
Test: in vivo
Parameters: species or system mice
Conditions: female, BALB/c nude, mouse, iv, 20 pmol, total radioactivity, uptake in heart
outcome.measure: tissue uptake at 72 h (%ID/g)
Provide the reading as a plain figure in %ID/g.

Q) Reported tissue uptake at 72 h for CCCC[C@@H](C(=O)N[C@@H](CC(=O)O)C(=O)N[C@@H](Cc1cccc2ccccc12)C(N)=O)N(C)C(=O)[C@H](Cc1c[nH]c2ccccc12)NC(=O)CCNC(=O)CC(O)CNC(=O)CC(O)CNC(=O)CN1CCN(CC(=O)O)CCN(CC(=O)O)CCN(CC(=O)O)CC1 (stereo partly shown) [[^177Lu]Lu-2, metal not drawn] : what is it?
A) 0.02

----------
Assay: in vivo
Design: species or system mice
Conditions: female, BALB/c nude, mouse, iv, 20 pmol, total radioactivity, uptake in liver
Procedure: Based on these preliminary studies, [^177Lu]Lu-2 was selected for further biodistribution studies evaluating the tumor uptake and tissue distribution for up to 7 days after injection. […] For quantification, a 1% standard was used. […] All collected samples were weighed and measured in the γ-counter together with the standard. Results were expressed as percentage of injected activity per gram of tissue (%IA/g), and tumor-to-organ activity ratios were calculated for selected tissues. […]
outcome.measure: tissue uptake at 72 h (%ID/g)
Numeric answer only, unit %ID/g assumed.

Q) Request the reported tissue uptake at 72 h associated with CCCC[C@@H](C(=O)N[C@@H](CC(=O)O)C(=O)N[C@@H](Cc1cccc2ccccc12)C(N)=O)N(C)C(=O)[C@H](Cc1c[nH]c2ccccc12)NC(=O)CCNC(=O)CC(O)CNC(=O)CC(O)CNC(=O)CN1CCN(CC(=O)O)CCN(CC(=O)O)CCN(CC(=O)O)CC1 (stereo partly shown) [[^177Lu]Lu-2, metal not drawn]
A) 0.18

----------
Assay: Biodistribution blocking experiment with 1000-fold excess of non-radiolabeled peptide
Assay type: in vivo, mice
Details: female, BALB/c nude, mouse, in vivo, iv, total radioactivity, uptake in stomach, blocking
outcome.measure: tissue uptake at 4 h (%ID/g)
Response body: numeric value in %ID/g, unit text excluded.

Q) Fill in the blank: the reported tissue uptake at 4 h of CCCC[C@@H](C(=O)N[C@@H](CC(=O)O)C(=O)N[C@@H](Cc1cccc2ccccc12)C(N)=O)N(C)C(=O)[C@H](Cc1c[nH]c2ccccc12)NC(=O)CCNC(=O)CC(O)CNC(=O)CC(O)CNC(=O)CN1CCN(CC(=O)O)CCN(CC(=O)O)CCN(CC(=O)O)CC1 (stereo partly shown) [[^177Lu]Lu-2, metal not drawn] is ____.
A) 0.09

----------
Assay: in vivo
Parameters: species or system mice
Conditions: female, BALB/c nude, mouse, iv, 20 pmol, total radioactivity, uptake in pancreas
outcome.measure: tissue uptake at 24 h (%ID/g)
Provide the reading as a plain figure in %ID/g.

Q) Value lookup for tissue uptake at 24 h; key = CCCC[C@@H](C(=O)N[C@@H](CC(=O)O)C(=O)N[C@@H](Cc1cccc2ccccc12)C(N)=O)N(C)C(=O)[C@H](Cc1c[nH]c2ccccc12)NC(=O)CCNC(=O)CC(O)CNC(=O)CC(O)CNC(=O)CN1CCN(CC(=O)O)CCN(CC(=O)O)CCN(CC(=O)O)CC1 (stereo partly shown) [[^177Lu]Lu-2, metal not drawn]
A) 0.41

----------
Test: Biodistribution 4 h p.i. in A431-CCK2R/A431-mock xenografted BALB/c nude mice
Format: in vivo
Conditions: female, BALB/c nude, mouse, pancreas, iv, 20 pmol, total radioactivity, 4 h p.i., ~0.5 MBq, 20 pmol, n=5; read-out: uptake in pancreas
outcome.measure: tissue uptake at 4 h (%ID/g)
Respond with the bare value in %ID/g.

Q) Requested read-out: tissue uptake at 4 h. Entry: CCCC[C@@H](C(=O)N[C@@H](CC(=O)O)C(=O)N[C@@H](Cc1cccc2ccccc12)C(N)=O)N(C)C(=O)[C@H](Cc1c[nH]c2ccccc12)NC(=O)CNC(=O)[C@H](Cc1ccc(O)cc1)NC(=O)[C@H](C)NC(=O)[C@@H](CCC(=O)O)NC(=O)CN1CCN(CC(=O)O)CCN(CC(=O)O)CCN(CC(=O)O)CC1 [[^177Lu]Lu-DOTA-MGS5, metal not drawn, reference compound]
A) 1.91

----------
Test: Biodistribution 4 h p.i. in A431-CCK2R/A431-mock xenografted BALB/c nude mice
Type: in vivo
Settings: female, BALB/c nude, mouse, in vivo, iv, 20 pmol, total radioactivity
outcome.measure: tissue to tissue ratio at 4 h

Q) Given the entry CCCC[C@@H](C(=O)N[C@@H](CC(=O)O)C(=O)N[C@@H](Cc1cccc2ccccc12)C(N)=O)N(C)C(=O)[C@H](Cc1c[nH]c2ccccc12)NC(=O)CCNC(=O)CC(O)CNC(=O)CC(O)CNC(=O)CN1CCN(CC(=O)O)CCN(CC(=O)O)CCN(CC(=O)O)CC1 (stereo partly shown) [[^177Lu]Lu-2, metal not drawn] , report its measured tissue to tissue ratio at 4 h.
A) 17

----------
Assay: in vivo
Set-up: species or system mice
Settings: female, BALB/c nude, mouse, iv, 20 pmol, total radioactivity, uptake in muscle
outcome.measure: tissue uptake at 24 h (%ID/g)
Give the quantity in %ID/g, number only.

Q) Could you share which tissue uptake at 24 h value was measured for CCCC[C@@H](C(=O)N[C@@H](CC(=O)O)C(=O)N[C@@H](Cc1cccc2ccccc12)C(N)=O)N(C)C(=O)[C@H](Cc1c[nH]c2ccccc12)NC(=O)CCNC(=O)CC(O)CNC(=O)CC(O)CNC(=O)CN1CCN(CC(=O)O)CCN(CC(=O)O)CCN(CC(=O)O)CC1 (stereo partly shown) [[^177Lu]Lu-2, metal not drawn] ?
A) 0.03

----------
Experiment: Biodistribution 4 h p.i. in A431-CCK2R/A431-mock xenografted BALB/c nude mice
Type: in vivo
Conditions: female, BALB/c nude, mouse, muscle, iv, 20 pmol, total radioactivity, 4 h p.i., ~0.5 MBq, 20 pmol, n=5; read-out: uptake in muscle
outcome.measure: tissue uptake at 4 h (%ID/g)
# unit: %ID/g | format: bare number

Q) I'd like to know its tissue uptake at 4 h. The compound in question is CCCC[C@@H](C(=O)N[C@@H](CC(=O)O)C(=O)N[C@@H](Cc1cccc2ccccc12)C(N)=O)N(C)C(=O)[C@H](Cc1c[nH]c2ccccc12)NC(=O)CNC(=O)[C@H](Cc1ccc(O)cc1)NC(=O)[C@H](C)NC(=O)[C@@H](CCC(=O)O)NC(=O)CN1CCN(CC(=O)O)CCN(CC(=O)O)CCN(CC(=O)O)CC1 [[^177Lu]Lu-DOTA-MGS5, metal not drawn, reference compound]
A) 0.1
